# Test system: Chordin-like protein 2 (CHRDL2)
# assay method text: CHRDL2 small-molecule binders, primary screen, biochemical, small-molecule microarray, 635 nm fluorescence (AID 1126);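 further: printed compound slides probed with Chrdl2 protein at 4 µg/mL for 1 h at 4 C; score merges 667 nm emission intensity with signal to noise over three replicate slides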
# condition context: small-molecule microarray binding, fluorescence 635 nm; higher = more signal
Class field: derived from composite z-score; ranges group 1 (below 0.07), group 2 (0.07 to below 0.6), group 3 (0.6 or more)

Some solved entries appear below for comparison.
1) CCOC(=O)C[C@H]1[C@H](OC(=O)c2cc3ccccc3oc2=O)[C@@H](NC(=O)Cc2ccc(OC)cc2)c2cc(OCCCO)ccc2N1C(=O)c1ccccc1 ... group 2
2) COC(=O)c1c(CC[C@@H](CO)NC(=O)N[C@@H](C)Cn2cc(C3(O)CCCCC3)nn2)oc(C(C)=O)c1C(=O)OC ... group 3
3) O=C1O[C@@H](c2ccccc2)[C@@H](c2ccccc2)N2[C@@H](c3ccc(OCCO)cc3)[C@]3(C(=O)Nc4ccccc43)[C@@H](C(=O)NC[C@H](O)c3ccccc3)[C@H]12 ... group 3
4) COc1ccc(COC2OC[C@]3(C)[C@H]4C5=C(CN3C(=O)OC(C)(C)C)[C@H](C)C(CO)C(CO)C5CC[C@@H]24)cc1 (some centres undefined) ... group 1
5) O=C1O[C@H](c2ccccc2)[C@H](c2ccccc2)N2[C@H]1[C@@H](C(=O)O)[C@]1(C(=O)Nc3ccc(C#CC4=CCCCC4)cc31)[C@H]2c1ccccc1OCCO ... group 2

Turning now to a further molecule:
Inquiry: Each molecule maps to one class by composite z-score. Which class for C=CCN(Cc1ccccc1)C(=O)C(c1cccs1)N(CCOCCO)C(=O)/C=C\C(=O)O (centres undefined) ?
Reply text: group 1

###

# assay method text: basal S. cerevisiae growth modulation, no modifier, primary screen, OD600, strain BY4716, 24 h, basal condition (AID 1173)
# condition context: OD600, 24 h, higher = more signal, called active from +8 up or from −8 down
Collected z-score values appear next to each entry.
Write no unit; give the number alone.

Worked examples, 5 molecules total:
1) CC(C)c1ccc(NN2C(C(O)c3cc(C(F)(F)F)cc(C(F)(F)F)c3)C=CC3C(=O)N(c4ccccc4)C(=O)C32)cc1 (stereo not given) ... -1.33
2) [N-]=[N+]=Nc1ccccc1C[C@@]1(C(=O)NCCN2CCOCC2)N=C(c2ccc(OCCCO)cc2)O[C@@H]1c1ccccc1 ... -4.41
3) COC(=O)[C@@]1(Cc2ccc(OC)cc2)[C@H]2c3cc(C(=O)N4CCCC4)n(Cc4ccsc4Br)c3C[C@H]2CN1C(=O)c1ccccc1 ... 0.567
4) C=CCC(OC(C)=O)[C@@H]1[C@@H](N(Cc2ccc(-c3cccc(C(F)(F)F)c3)o2)C(=O)Cc2ccc(F)cc2)c2cc(OCCCO)ccc2N1C(=O)Cc1ccc(OC)cc1 (stereo not given in full) ... -0.546
5) O=C1C2C=CC(C(O)C3CCCCC3)N(Nc3ccc([N+](=O)[O-])cc3)C2C(=O)N1c1ccccc1 (stereo not given) ... 0.581

Item: COc1ccc([Si](C)(C)[C@H]2[C@H](CCO)O[C@@]3(C(=O)N(Cc4ccc(N5C(=O)COc6ccccc65)cc4)c4ccccc43)[C@@H]2C)cc1 | z-score: 0.573

Item: COC(=O)c1c(CC[C@@H](CO)NC(=O)N2CCC[C@H]2Cn2cc(-c3ccccn3)nn2)oc(C(C)=O)c1C(=O)OC | z-score: -0.835
